assay: NCI Yeast Anticancer Drug Screen. Data for the sgs1 mgt1 strain (AID 161);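 also: 0% = growth of cultures given vehicle only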; conditions: S. cerevisiae sgs1 mgt1 strain, at 50.0 µM (retest, dose inferred, filed as 5.0)
This is part of a sample that, as a whole, favours compounds with a hit. Of some 79,000 tested, about 15% had one in any assay. Calls of active or inactive are those of the source. Rule as the data show it: active = growth inhibition above about 70%; inactive = the rest.
Outcome field: choose from T = active, F = inactive

For this molecule, state the assay outcome: CCc1ccc(CC(=O)O)c2ccc3c(C)ccc(C)c3c12 T

For this molecule, state the assay outcome: CC1(c2ccc3ccccc3c2)C(C#N)(C#N)C1(C#N)C#N T

For this molecule, state the assay outcome: CC(C)(C)[Si](C)(C)OCC1OC(n2cc(I)c(N)nc2=O)C(O[Si](C)(C)C(C)(C)C)C1O[Si](C)(C)C(C)(C)C (stereo not given) T

For this molecule, state the assay outcome: CCCCCCCCCCCC(=O)N(CCCCCCCCC)CC(O)C(O)C(OC1OC(CO)C(O)C(O)C1O)C(O)CO (stereo not given) T

For this molecule, state the assay outcome: Cc1scnc1C(C#N)(c1ccccc1)c1ccccc1 T

For this molecule, state the assay outcome: N#Cc1ccc(Cl)cc1[N+](=O)[O-] T

For this molecule, state the assay outcome: COc1ccc(C2=CCC3C4CC=C5CC(O)CCC5(C)C4CCC23C)s1 (stereo not given) T

For this molecule, state the assay outcome: CCC[N+]1=C(/C=C/c2cc(C)c3cccnc3c2O)C(C)(C)c2ccccc21 T

For this molecule, state the assay outcome: COc1ccc2c(c1)CCC1C2CCC2(C)C(=O)C(SC3=NC=NC4=NC=NC43)CC12 (stereo not given) T

For this molecule, state the assay outcome: O=C1/C(=C/c2ccccc2)CCC/C1=C\c1ccc(O)c(CN2CCCCC2)c1 F

For this molecule, state the assay outcome: Oc1ccc(Br)cc1-c1nc2cc(Cl)c(Cl)cc2nc1-c1cc(Br)ccc1O T

For this molecule, state the assay outcome: COc1cc2c(c(OC)c1OC)-c1ccc(O)c(=O)cc1C(N=Cc1ccccc1)CC2 (stereo not given) F

For this molecule, state the assay outcome: C=C1CC[C@@H](Br)C(C)(C)[C@]12CCC(C)(O)C(Cl)C2 (stereo not given in full) F

For this molecule, state the assay outcome: CC1(C)CC(=O)C2=C(C1)OC1=C(CC(C)(C)CC1=O)C2c1ccccc1[N+](=O)[O-] (stereo not given) F

For this molecule, state the assay outcome: CSC(=Nc1ccc(Cl)cc1)N1CC=Cc2ccccc21 F

For this molecule, state the assay outcome: O=C(c1ccc([N+](=O)[O-])cc1)C(Br)C(Br)c1ccnc2ccccc12 (stereo not given) T

For this molecule, state the assay outcome: N#CC1(C#N)C2C=CC(c3coc4cccc2c34)C1(C#N)C#N (stereo not given) F

====

assay: NCI Yeast Anticancer Drug Screen. Data for the mec2-1 strain (AID 157); conditions: S. cerevisiae mec2-1 strain, at 5.0 µM (retest, dose inferred, filed as 0.5), stronger effect = higher value
The panel holds about 79,000 compounds, 15% with a hit somewhere; the sample as a whole holds those more often.
The entries below are paired with their reported growth inhibition.
Expressed in %, but write only the number.

CC(=O)NNc1nc(C)c(C(=O)NNC(=O)C(=O)Nc2ccc(Cl)c([N+](=O)[O-])c2)s1 :: 19

State its growth inhibition for this compound: CCO/C=C1\C(=O)C=C(C)CC1c1ccc(OC)c(OC)c1OC (stereo unspecified) 4

State its growth inhibition for this compound: O=C(NC1CCN(Cc2ccccc2)CC1)c1cccc(I)c1 39

State its growth inhibition for this compound: NC(=O)C#CC#CC#CCO 24

State its growth inhibition for this compound: O=[N+]([O-])c1cccc(/C=N/Nc2ccc3ccccc3n2)c1O 1

State its growth inhibition for this compound: COc1ccc(C(c2cc3c(cc2O)OCO3)N2CCCC2)c(OC)c1 (stereo unspecified) 0
